tested on: Pasteurella multocida 40G; test: MIC, broth-dilution microtiter test (Table III); format: cell-based; design: unit not given here
measure_name: minimal inhibitory concentration (MIC)
# print the numeric value only

Notebook: CCC1OC(=O)CC(O)C(C)C(OC2OC(C)C(O)C(N(C)C)C2O)C(CC=O)CC(C)C(=O)C=CC(C)=CC1COC(=O)CCCC(=O)OC (stereo not drawn) , minimal inhibitory concentration (MIC) read as 3.12

For this compound ( CCC1OC(=O)CC(O)C(C)C(OC2OC(C)C(O)C(N(C)C)C2OC(C)=O)C(CC=O)CC(C)C(=O)C=CC(C)=CC1COC(=O)C=Cc1ccccc1 (stereo not drawn) ), measured minimal inhibitory concentration (MIC) is 3.12

Reported minimal inhibitory concentration (MIC) of CCC1OC(=O)CC(O)C(C)C(OC2OC(C)C(O)C(N(C)C)C2O)C(CC=O)CC(C)C(=O)C=CC(C)=CC1COC(C)=O (stereo not drawn) : 3.12

The recorded minimal inhibitory concentration (MIC) for CCC1OC(=O)CC(O)C(C)C(OC2OC(C)C(O)C(N(C)C)C2O)C(CC=O)CC(C)C(=O)C=CC(C)=CC1COC(=O)CCCCc1ccccc1 (stereo not drawn) is 6.25

Record CCC1OC(=O)CC(O)C(C)C(OC2OC(C)C(O)C(N(C)C)C2OC(C)=O)C(CC=O)CC(C)C(=O)C=CC(C)=CC1COC(=O)C(Cl)(Cl)Cl (stereo not drawn) . Reported minimal inhibitory concentration (MIC): 25

Per the records, this compound ( CCC1OC(=O)CC(O)C(C)C(OC2OC(C)C(OC(C)=O)C(N(C)C)C2OC(C)=O)C(CC=O)CC(C)C(=O)C=CC(C)=CC1CO (stereo not drawn) ) has minimal inhibitory concentration (MIC) equal to 6.25

----------
Below, each of the compounds is paired with its reported minimal inhibitory concentration (MIC) value.
system: Pasteurella multocida 40G; test: MIC, broth-dilution microtiter test (Table III); assay type: cell-based; design: unit not given here
Write the number on its own, no unit after it.

Worked cases, answers included:
CCC1OC(=O)CC(O)C(C)C(OC2OC(C)C(O)C(N(C)C)C2OC(C)=O)C(CC=O)CC(C)C(=O)C=CC(C)=CC1COC(=O)Cc1ccc([N+](=O)[O-])cc1 (stereo not drawn) :: 1.56
CCC1OC(=O)CC(O)C(C)C(OC2OC(C)C(OC(C)=O)C(N(C)C)C2OC(C)=O)C(CC=O)CC(C)C(=O)C=CC(C)=CC1COC(=O)Cc1cccnc1 (stereo not drawn) :: 3.12

Note: attention shifts to another entry.
The value of minimal inhibitory concentration (MIC) measured for the compound CCC1OC(=O)CC(O)C(C)C(OC2OC(C)C(O)C(N(C)C)C2O)C(CC=O)CC(C)C(=O)C=CC(C)=CC1COC(=O)[C@H](NC(=O)OC(C)(C)C)c1ccccc1 (stereo partly drawn) turned out to be 6.25

----------
tested on: Streptococcus pyogenes C203; assay: MIC, standard agar-dilution assay (Table II); type: cell-based; design: unit not given here
measure_name: minimal inhibitory concentration (MIC)
// response body must contain only the number

Solved cases below.
CCC1OC(=O)CC(O)C(C)C(OC2OC(C)C(O)C(N(C)C)C2O)C(CC=O)CC(C)C(=O)C=CC(C)=CC1COC(=O)CC(C)C (stereo not drawn) [Compound 22] :: 0.25
CCC1OC(=O)CC(O)C(C)C(OC2OC(C)C(O)C(N(C)C)C2O)C(CC=O)CC(C)C(=O)C=CC(C)=CC1COC(=O)CCCCc1ccccc1 (stereo not drawn) [Compound 61] :: 0.25
CCC1OC(=O)CC(O)C(C)C(OC2OC(C)C(OC(C)=O)C(N(C)C)C2OC(C)=O)C(CC=O)CC(C)C(=O)C=CC(C)=CC1COC(=O)[C@H](O)c1ccccc1 (stereo partly drawn) [Compound 41, 2',4'-Di-O-acetyl-23-O-(D-mandeloyl)-OMT] :: 0.06

Note to self: minimal inhibitory concentration (MIC) recorded for CCCC(=O)OCC1C=C(C)C=CC(=O)C(C)CC(CC=O)C(OC2OC(C)C(OC(C)=O)C(N(C)C)C2OC(C)=O)C(C)C(O)CC(=O)OC1CC (stereo not drawn) [Compound 15] was 0.25

The value of minimal inhibitory concentration (MIC) measured for the compound CCC1OC(=O)CC(O)C(C)C(OC2OC(C)C(OC(=O)CC(C)C)C(N(C)C)C2OC(C)=O)C(CC=O)CC(C)C(=O)C=CC(C)=CC1CO (stereo not drawn) [Compound 49, 2'-O-Acetyl-4'-O-isovaleryl-OMT] turned out to be 0.25

Memo: CCC1OC(=O)CC(O)C(C)C(OC2OC(C)C(OC(C)=O)C(N(C)C)C2OC(C)=O)C(CC=O)CC(C)C(=O)C=CC(C)=CC1COS(=O)(=O)c1ccc(NC(C)=O)cc1 (stereo not drawn) [Compound 47] , reported minimal inhibitory concentration (MIC): 0.125

Looking up CCC1OC(=O)CC(O)C(C)C(OC2OC(C)C(O)C(N(C)C)C2O)C(CC=O)CC(C)C(=O)C=CC(C)=CC1COC(=O)C(N)c1ccccc1 (stereo not drawn) [Compound 57] , I see its minimal inhibitory concentration (MIC) listed as 0.125

Record summary for CCC1OC(=O)CC(O)C(C)C(OC2OC(C)C(O)C(N(C)C)C2O)C(CC=O)CC(C)C(=O)C=CC(C)=CC1COC(=O)COc1ccccc1 (stereo not drawn) [Compound 36, 23-O-Phenoxyacetyl-OMT] : reported minimal inhibitory concentration (MIC) = 0.06

Record summary for CCC1OC(=O)CC(O)C(C)C(OC2OC(C)C(OC(C)=O)C(N(C)C)C2OC(C)=O)C(CC=O)CC(C)C(=O)C=CC(C)=CC1COC(C)=O (stereo not drawn) [Compound 7, 2',4',23-Tri-O-acetyl-OMT] : reported minimal inhibitory concentration (MIC) = 0.5

So, CCC1OC(=O)CC(O)C(C)C(OC2OC(C)C(O)C(N(C)C)C2OC(C)=O)C(CC=O)CC(C)C(=O)C=CC(C)=CC1COC(=O)CCCC(=O)OC (stereo not drawn) [Compound 71] ? Its minimal inhibitory concentration (MIC) was 0.25

Just so you know, measured minimal inhibitory concentration (MIC) for CCC1OC(=O)CC(O)C(C)C(OC2OC(C)C(O)C(N(C)C)C2O)C(CC=O)CC(C)C(=O)C=CC(C)=CC1COC(=O)Cc1ccccc1 (stereo not drawn) [Compound 29, 23-O-Phenylacetyl-OMT] came out at 0.06

Quick note, minimal inhibitory concentration (MIC) for CCC1OC(=O)CC(O)C(C)C(OC2OC(C)C(O)C(N(C)C)C2O)C(CC=O)CC(C)C(=O)C=CC(C)=CC1COC(=O)Cc1cc(OC)ccc1OC (stereo not drawn) [Compound 63] landed at 0.06

// recorded minimal inhibitory concentration (MIC) for CCC1OC(=O)CC(O)C(C)C(OC2OC(C)C(OC(C)=O)C(N(C)C)C2OC(C)=O)C(CC=O)CC(C)C(=O)C=CC(C)=CC1CO (stereo not drawn) [Compound 3, 2',4'-Di-O-acetyl-OMT] : 0.5

minimal inhibitory concentration (MIC) measured on CCC1OC(=O)CC(O)C(C)C(OC2OC(C)C(O)C(N(C)C)C2OC(C)=O)C(CC=O)CC(C)C(=O)C=CC(C)=CC1COC(=O)C(Cl)(Cl)Cl (stereo not drawn) [Compound 77] = 0.25

Just so you know, measured minimal inhibitory concentration (MIC) for CCC1OC(=O)CC(O)C(C)C(OC2OC(C)C(O)C(N(C)C)C2O)C(CC=O)CC(C)C(=O)C=CC(C)=CC1COC(=O)[C@H](NC(=O)OC(C)(C)C)c1ccccc1 (stereo partly drawn) [Compound 40, 23-O-(D-t-BOC-Phenylglycyl)-OMT] came out at 0.125

----------
Recorded measurements of minimal inhibitory concentration (MIC), one per entry
tested on: Staphylococcus aureus X400; assay: MIC, standard agar-dilution assay (Table II); type: cell-based; parameters: unit not given here; settings: Staphylococcus aureus X400, methicillin-resistant strain

CCC1OC(=O)CC(O)C(C)C(OC2OC(C)C(OC(C)=O)C(N(C)C)C2OC(C)=O)C(CC=O)CC(C)C(=O)C=CC(C)=CC1COC(=O)C(C)C (stereo not drawn) :: 1
CCC1OC(=O)CC(O)C(C)C(OC2OC(C)C(O)C(N(C)C)C2OC(C)=O)C(CC=O)CC(C)C(=O)C=CC(C)=CC1COC(=O)Cc1ccc([N+](=O)[O-])cc1 (stereo not drawn) :: 0.125
CCC1OC(=O)CC(O)C(C)C(OC2OC(C)C(O)C(N(C)C)C2O)C(CC=O)CC(C)C(=O)C=CC(C)=CC1COC(=O)[C@H](NC(=O)OC(C)(C)C)c1ccccc1 (stereo partly drawn) :: 1
CCC1OC(=O)CC(O)C(C)C(OC2OC(C)C(OC(C)=O)C(N(C)C)C2OC(C)=O)C(CC=O)CC(C)C(=O)C=CC(C)=CC1COC(=O)C(Cl)Cl (stereo not drawn) :: 2

// sample CCC(=O)OCC1C=C(C)C=CC(=O)C(C)CC(CC=O)C(OC2OC(C)C(O)C(N(C)C)C2O)C(C)C(O)CC(=O)OC1CC (stereo not drawn) , its minimal inhibitory concentration (MIC) was 0.25

Measured minimal inhibitory concentration (MIC), CCC1OC(=O)CC(O)C(C)C(OC2OC(C)C(O)C(N(C)C)C2OC(C)=O)C(CC=O)CC(C)C(=O)C=CC(C)=CC1COC(=O)CCc1ccccc1 (stereo not drawn) : 0.25
